# IC50 listing for each entry below
# TESTED_ON: T1, Human PDGF-BB (human, UniProt P01127 82-190)
# T1 construct: Dimer of two B chains; also called hPDGF-BB; huPDGF-BB
# TEST_METHOD_NOTES: competition ELISA: antibody pre-incubated with hPDGF-BB-biotin, binding to coated hPDGF-Rβ-Fc
Numbers only here, please. The scale is nM.

Examples with their reported IC50 follow.
CL-33675-IgG (antibody, V domains shown) VH: EVTLRESGPALVKPTQTLTLTCTFSGFSLSTYGMGVGWIRQPPGKALEWLANIWWDDDKYYNPSLKNRLTISKDTSKNQVVLTMTNMDPVDTATYYCARIESSGPKYSFDYWGQGTMVTVSS VL: EIVLTQSPGTLSLSPGERATLSCRASSGSIWYSFVSWYQQKPGQAPRLLIYADDQRASGIPDRFSGSGSGTDFTLTISRLEPEDFAVYYCQSYGINIDVVFGGGTKVEIK | 0.054
CL-33805-IgG (antibody, V domains shown) VH: EVTLRESGPALVKPTQTLTLTCTFSGFSLSTYGMGVGWIRQPPGKALEWLANIWWDDDKYYNPSLKNRLTISKDTSKNQVVLTMTNMDPVDTATYYCARIESHWWSYAFDYWGQGTMVTVSS VL: EIVLTQSPGTLSLSPGERATLSCERSSGSNYDTYVSWYQQKPGQAPRLLIYADDLRASGIPDRFSGSGSGTDFTLTISRLEPEDFAVYYCQSYGIETDIVFGGGTKVEIK | 0.063

Turning now to a further binder:
## Task GET /values?readout=IC50&item= CL-33731-IgG (antibody, V domains shown) VH: EVTLRESGPALVKPTQTLTLTCTFSGFSLSTYGMGVGWIRQPPGKALEWLANIWWDDDKYYNPSLKNRLTISKDTSKNQVVLTMTNMDPVDTATYYCARIESIPTSYSFDYWGQGTMVTVSS VL: EIVLTQSPGTLSLSPGERATLSCERSSGSIWQSYVSWYQQKPGQAPRLVIYADDQRATGIPDRFSGSGSGTDFTLTISRLEPEDFAVYYCQSYDIDIDVVFGGGTKVEIK
## Result 0.068
